Origin of measurements: PubChem BioAssay AID1159580

Assay: chemical genetic growth profiling, strain panel (AID 1159580);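 note: tested at 20 µM; growth read once vehicle control cultures reached saturation at 30 °C; 1 = growth at the plate median or of vehicle wells; lower values mean less growth of the strain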
Conditions: S. cerevisiae deletion strains, growth OD, locus YGL248W, strain PDE1, active compounds read low
The whole screen tested about 5,500 compounds, of which about 2,000 (36%) were called active. Not shown: some 18% with an inconclusive outcome. The list shows a part of the results.

{"molecule": "COc1cc(OC)c2c(c1)O[C@H](c1cc(OC)c(OC)c(OC)c1)[C@H](OC(=O)c1cc(OC)c(OC)c(OC)c1)C2", "normalized growth": "1.01 (inactive)"}
{"molecule": "N[C@@H](Cc1ccc(N(CCCl)CCCl)cc1)C(=O)O", "normalized growth": "0.972 (inactive)"}
{"molecule": "COc1cc([C@@H]2c3cc4c(cc3C(OC3O[C@@H]5COC(C)O[C@H]5[C@H](O)[C@H]3O)C3COC(=O)[C@@H]32)OCO4)cc(OC)c1O (stereo partly drawn)", "normalized growth": "1.01 (inactive)"}
{"molecule": "CC(=O)S[C@@H]1CC2=CC(=O)CC[C@]2(C)[C@H]2CC[C@@]3(C)[C@@H](CC[C@@]34CCC(=O)O4)C12 (stereo partly drawn)", "normalized growth": "1.01 (inactive)"}
{"molecule": "C[C@]12CCC(=O)C=C1C=CC1C2CC[C@@]2(C)C1CC[C@@]2(O)CCC(=O)O (stereo partly drawn)", "normalized growth": "0.994 (inactive)"}
{"molecule": "C[C@@H]1O[C@@H](O[C@H]2[C@H](Oc3cc(O)c4c(=O)cc(-c5ccc(O)cc5)oc4c3)O[C@H](CO)[C@@H](O)[C@@H]2O)[C@H](O)[C@H](O)[C@H]1O", "normalized growth": "1.02 (inactive)"}
{"molecule": "CNCCC(Oc1ccc(C(F)(F)F)cc1)c1ccccc1 (stereo not drawn)", "normalized growth": "1.02 (inactive)"}
{"molecule": "CC(=O)Oc1cc(OC(C)=O)c2c(c1)O[C@H](c1ccc(OC(C)=O)c(OC(C)=O)c1)[C@H](OC(C)=O)C2", "normalized growth": "1.01 (inactive)"}

---

Test: chemical genetic growth profiling, strain panel (AID 1159580);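 note: tested at 20 µM; growth read once vehicle control cultures reached saturation at 30 °C; 1 = growth at the plate median or of vehicle wells; lower values mean less growth of the strain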
Settings: S. cerevisiae deletion strains, growth OD, locus YOR316C, strain cot1, active compounds read low
Among all 5,500 compounds or so, about 2,000 (36%) were called active. Roughly 18% stayed inconclusive and do not appear here. Some of the results follow.

{"compound": "CN1CC(CO)=C[C@@H]2c3cccc4[nH]cc(c34)C[C@H]21", "normalized growth": 1}
{"compound": "CCC(C)C(=O)OC1CC2(C)C(c3ccoc3)OC(=O)CC23OC2(C)OC34C(OC(=O)C(C)C)C3(O)C(OC(=O)C5(C)OC5C)C5(C)CC3(O)C(C)(C5C(=O)OC)C14O2 (centres undefined)", "normalized growth": 1.02}
{"compound": "N[C@@H](Cc1ccc(N(CCCl)CCCl)cc1)C(=O)O", "normalized growth": 0.97}
{"compound": "CCCCCCCCCCC[C@@H](C[C@H]1OC(=O)[C@H]1CCCCCC)OC(=O)[C@@H](CC(C)C)NC=O", "normalized growth": 1.01}

---

Assay: chemical genetic growth profiling, strain panel (AID 1159580);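 note: tested at 20 µM; growth read once vehicle control cultures reached saturation at 30 °C; 1 = growth at the plate median or of vehicle wells; lower values mean less growth of the strain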
Details: S. cerevisiae deletion strains, growth OD, locus YLR320W, strain mms22
The campaign covered roughly 5,500 compounds. About 2,000 (36%) were called active. Inconclusive results (about 18%) are left out. Cut-off read from the data, not from the text of the source: active = normalized growth mostly below about 0.91 (no sharp cut-off); inconclusive = no clear call, values can overlap the other calls; inactive = mostly above about 0.92. The list shows a part of the results.
Outcome codes: true (active), false (inactive)

{"smiles data": "O=C(O[C@@H]1Cc2c(O)cc(O)cc2O[C@@H]1c1cc(O)c(O)c(O)c1)c1cc(O)c(O)c(O)c1", "class label": "true"}
{"smiles data": "O=C(O)CCCc1ccc(N(CCCl)CCCl)cc1", "class label": "false"}
{"smiles data": "OCCc1ccccc1", "class label": "false"}
